Reference source for all entries: patent US20260365670A1

# TARGET: EGFR L858R (Homo sapiens, UniProt P00533, L858R)
# Construct: purchased Carna Bio
# Sequence (P00533 25-1210 L858R): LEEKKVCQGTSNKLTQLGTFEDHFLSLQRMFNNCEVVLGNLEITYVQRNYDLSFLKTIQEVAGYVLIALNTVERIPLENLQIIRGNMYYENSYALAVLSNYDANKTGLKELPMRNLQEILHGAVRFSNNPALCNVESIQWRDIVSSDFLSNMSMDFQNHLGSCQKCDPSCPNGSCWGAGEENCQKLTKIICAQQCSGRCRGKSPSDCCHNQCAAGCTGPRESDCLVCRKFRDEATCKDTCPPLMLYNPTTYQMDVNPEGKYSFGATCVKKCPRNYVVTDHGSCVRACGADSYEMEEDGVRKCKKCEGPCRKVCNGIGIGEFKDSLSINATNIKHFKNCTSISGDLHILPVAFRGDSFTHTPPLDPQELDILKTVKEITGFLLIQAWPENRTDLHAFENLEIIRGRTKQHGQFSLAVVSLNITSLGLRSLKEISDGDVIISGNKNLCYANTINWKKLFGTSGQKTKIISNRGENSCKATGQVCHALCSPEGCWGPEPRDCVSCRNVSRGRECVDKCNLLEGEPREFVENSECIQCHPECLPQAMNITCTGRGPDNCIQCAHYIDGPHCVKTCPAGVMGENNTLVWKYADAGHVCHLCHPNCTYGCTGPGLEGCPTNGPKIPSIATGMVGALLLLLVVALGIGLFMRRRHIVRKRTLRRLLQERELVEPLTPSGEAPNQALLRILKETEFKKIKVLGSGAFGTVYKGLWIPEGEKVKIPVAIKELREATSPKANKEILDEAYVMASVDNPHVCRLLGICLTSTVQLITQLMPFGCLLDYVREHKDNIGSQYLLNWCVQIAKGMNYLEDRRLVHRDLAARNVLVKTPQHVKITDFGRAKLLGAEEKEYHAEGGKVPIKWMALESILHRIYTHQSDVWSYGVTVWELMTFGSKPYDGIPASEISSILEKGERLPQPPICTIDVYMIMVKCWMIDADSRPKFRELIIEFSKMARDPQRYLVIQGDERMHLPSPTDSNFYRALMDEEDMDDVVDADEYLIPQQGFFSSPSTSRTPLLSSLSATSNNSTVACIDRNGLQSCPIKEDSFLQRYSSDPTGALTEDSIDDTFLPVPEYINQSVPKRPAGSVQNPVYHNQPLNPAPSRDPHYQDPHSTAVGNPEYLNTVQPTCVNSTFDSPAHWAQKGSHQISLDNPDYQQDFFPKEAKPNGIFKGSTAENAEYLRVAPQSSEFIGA
# TEST_PROTOCOL: Inhibition of EGFR L858R biochemical enzymatic activity (HTRF)
# CONDITION_SET: 1 mM ATP, 1 h, room temperature, read-out: IC50 (nM) @L858R
READOUT_TYPE: IC50 (nM)

Q) // map CN(C)C1CN(c2ccc3nc4n(c3c2)C23CCC(CN(CCOc5c(cnn5C)-c5cc(cn(C)c5=O)C(=O)N4)C2)C3)CC1F (single isomer, unassigned) [Example A84B] to recorded IC50 (system: EGFR L858R (Homo sapiens, UniProt P00533, L858R))
A) 1310

Q) Another compound to check: CN1CCC2(CC1)CN(c1ccc3nc4n(c3c1)C13CCC(CN(CCOc5c(cnn5C)-c5cc(cn(C)c5=O)C(=O)N4)C1)C3)C2 (single isomer, unassigned) [Example A77A]
A) 1110

Q) Another compound to check: Cn1ncc2c1OCCN1CC3CCC(CC3)(C1)n1c(nc3cc(F)c(N4CCOCC4)cc31)NC(=O)c1cc-2c(=O)n(C)c1 [Example A113]
A) 439

Q) Another compound to check: C[C@@H]1CCCOc2c(cnn2C2CC2)-c2cc(cn(C)c2=O)C(=O)Nc2nc3ccc(N4CCN(C)CC4)cc3n2C1 [Example A22]
A) 86

Q) Another compound to check: CN(C)C1CN(c2ccc3nc4n(c3c2)C23CCC(CN(CCOc5c(cnn5C)-c5cc(cn(C)c5=O)C(=O)N4)C2)C3)C1 (single isomer, unassigned) [Example A65B]
A) 16

1: C[C@@H]1CCCOc2cc(F)c(F)cc2-c2cc(cn(C)c2=O)C(=O)Nc2nc3ccc(N4CCN(C)CC4)cc3n2C1 [Example A111]
2: C[C@@H]1CCCOc2c(cnn2C)-c2cc(cn(C)c2=O)C(=O)Nc2nc3ccc(N4CC5(CCN(C)CC5)C4)cc3n2C1 [Example A41]
Q) Smaller IC50 value, 1 vs 2 ? Lab note: record the label of whichever item you select.
A) 2
(2: 10 nM, 1: 36 nM)

----------
# TARGET: EGFR Exon19Del/T790M (Homo sapiens, UniProt P00533, DEL746-750/T790M)
# Construct: purchased Carna Bio
# Sequence (P00533 with tags, fused parts or gaps DEL746-750/T790M limits assumed): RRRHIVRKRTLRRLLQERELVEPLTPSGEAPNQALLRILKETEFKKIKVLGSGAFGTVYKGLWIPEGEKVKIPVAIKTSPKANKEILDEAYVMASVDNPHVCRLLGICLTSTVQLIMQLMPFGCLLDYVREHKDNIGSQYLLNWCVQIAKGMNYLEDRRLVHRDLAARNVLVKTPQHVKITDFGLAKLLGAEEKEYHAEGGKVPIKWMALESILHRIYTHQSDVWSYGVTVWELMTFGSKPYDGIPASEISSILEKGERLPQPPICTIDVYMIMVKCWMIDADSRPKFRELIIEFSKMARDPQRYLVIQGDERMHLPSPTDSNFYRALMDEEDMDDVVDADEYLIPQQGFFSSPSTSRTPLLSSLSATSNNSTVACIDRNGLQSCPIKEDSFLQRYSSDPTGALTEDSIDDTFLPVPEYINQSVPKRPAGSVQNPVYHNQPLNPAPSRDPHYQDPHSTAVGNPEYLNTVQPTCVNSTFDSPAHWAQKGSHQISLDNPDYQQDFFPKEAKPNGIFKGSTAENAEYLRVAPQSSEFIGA
# TEST_PROTOCOL: Inhibition of EGFR Exon19Del/T790M biochemical enzymatic activity (HTRF)
# CONDITION_SET: EGFR Exon19Del/T790M, 1 mM ATP, 1 h at room temperature, read-out: IC50 @Del19-T790M
READOUT_TYPE: IC50 (nM)

Q) Any idea what its IC50 is? The molecule is Cc1cc2cc(n1)-c1cnn(C)c1OCCN1CC3CCC(C3)(C1)n1c(nc3ccc(N4CCOCC4)cc31)NC2=O (single isomer, unassigned) [Example B10A]
A) 2.8

1: Cc1cc2cc(n1)-c1cnn(C)c1OCCN1CC3CCC(C3)(C1)n1c(nc3ccc(N4CC[C@@H](N(C)C)C4)cc31)NC2=O (single isomer, unassigned) [Example B42A]
2: Cc1cc2cc(n1)-c1cnn(C)c1OCCC[C@@H](C)Cn1c(nc3ccc4c(c31)CCN(CCN(C)C)C4)NC2=O
3: Cc1cc2cc(n1)-c1cc(=O)n(C)cc1OCCC[C@@H](C)Cn1c(nc3ccccc31)NC2=O
4: Cc1cc2cc(n1)-c1cnn(C)c1OCCN1CCOCC(C1)n1c(nc3ccccc31)NC2=O (stereo not shown) [Example B7B]
Q) Output the entries ranked by IC50 from maximum down to minimum. Provide the labels, sequenced as the question asks.
A) 1, 3, 4, 2
